Tested on: Staphylococcus aureus
PROTOCOL: Antibacterial activity against […] Staphylococcus aureus ATCC 43300 assessed as inhibition of bacterial growth measured after 24 hrs by MH broth based assay
Assay type: functional
READOUT_TYPE: MBC (µg/mL)
One number for each entry, in µg/mL.

STRUCTURE_NOTATION	MBC / µg/mL
C=C[C@]1(C)C[C@@H](OC(=O)CSc2ccc(NC(=O)c3ccco3)cc2)[C@]2(C)[C@H](C)CC[C@]3(CCC(=O)[C@H]32)[C@@H](C)[C@@H]1O	0.03
C=C[C@]1(C)C[C@@H](OC(=O)CSc2ccc(NC(=O)c3cccc(F)c3)cc2)[C@]2(C)[C@H](C)CC[C@]3(CCC(=O)[C@H]32)[C@@H](C)[C@@H]1O	0.03
C=C[C@]1(C)C[C@@H](OC(=O)CSc2ccc(NC(=O)c3ccc(C#N)cc3)cc2)[C@]2(C)[C@H](C)CC[C@]3(CCC(=O)[C@H]32)[C@@H](C)[C@@H]1O	0.03
C=C[C@]1(C)C[C@@H](OC(=O)CSc2ccc(NC(=O)c3ccc(F)cc3)cc2)[C@]2(C)[C@H](C)CC[C@]3(CCC(=O)[C@H]32)[C@@H](C)[C@@H]1O	0.03
C=C[C@]1(C)C[C@@H](OC(=O)CSc2ccc(NC(=O)c3cccs3)cc2)[C@]2(C)[C@H](C)CC[C@]3(CCC(=O)[C@H]32)[C@@H](C)[C@@H]1O	0.03

// moving on: another record for MBC
Q: Fill blank: measured MBC of the compound `C=C[C@]1(C)C[C@@H](OC(=O)CSc2ccc(NC(=O)c3ccccc3F)cc2)[C@]2(C)[C@H](C)CC[C@]3(CCC(=O)[C@H]32)[C@@H](C)[C@@H]1O` is ____.
A: 0.062

###

Hi there, I'd appreciate the recorded MIC for every entry that follows.
Test system: Staphylococcus aureus
PROTOCOL: Antibacterial activity against […] Staphylococcus aureus BNCC 337371 assessed as bacterial growth inhibition incubated for 18 to 24 hrs by NCCLS based assay
Assay type: functional
TEST_CONTEXT: time 18-24 hrs
One number for each entry, in µg/mL.

MOLECULE	STUDY_TARGET	MIC (µg/mL)
C=C[C@]1(C)C[C@@H](OC(=O)CSC2=NC(C)=C(C(C)=O)C(C)N2)[C@]2(C)[C@H](C)CC[C@]3(CCC(=O)[C@H]32)[C@@H](C)[C@@H]1O (stereo partly specified)	Staphylococcus aureus	0.125
C=C[C@]1(C)C[C@@H](OC(=O)CSC2=NC(C)=C(C(=O)OC)C(C)N2)[C@]2(C)[C@H](C)CC[C@]3(CCC(=O)[C@H]32)[C@@H](C)[C@@H]1O (stereo partly specified)	Staphylococcus aureus	0.25

# return MIC for each item in the list
1. C=C[C@]1(C)C[C@@H](OC(=O)CSC2=NC(C)=C(C(=O)OCC)C(C)N2)[C@]2(C)[C@H](C)CC[C@]3(CCC(=O)[C@H]32)[C@@H](C)[C@@H]1O (stereo partly specified)
2. C=C[C@]1(C)C[C@@H](OC(=O)CSc2nc(C)c(C(=O)OC)c(C)n2)[C@]2(C)[C@H](C)CC[C@]3(CCC(=O)[C@H]32)[C@@H](C)[C@@H]1O
3. C=C[C@]1(C)C[C@@H](OC(=O)CSc2nc(C)c(C(=O)OCC)c(C)n2)[C@]2(C)[C@H](C)CC[C@]3(CCC(=O)[C@H]32)[C@@H](C)[C@@H]1O
4. C=C[C@]1(C)C[C@@H](OC(=O)CSc2nc(C)c(C(C)=O)c(C)n2)[C@]2(C)[C@H](C)CC[C@]3(CCC(=O)[C@H]32)[C@@H](C)[C@@H]1O

A:
1: 0.06; 2: 0.015; 3: 0.015; 4: 0.015

Cited source: ChEMBL document CHEMBL5500336
